# procedure_summary: melting temperature; fluorescence melt of hairpins on a sequencing array, two-state fit, raised by 9.35 °C to match UV melts
# condition_details: sodium 0.088 M
Classes based on Tm: bottom range = under 40 °C, center range = from 40 °C up to 50 °C, top range = 50 °C and over

{"columns": ["sequence_text", "group_label"],
 "data": [
  ["GATCGCGAAAGCGCAATC ((((((....)))..)))", "bottom range"],
  ["GATCCCTCAGGGATC ((((((...))))))", "top range"],
  ["GCGTGGGGACGC ((((....))))", "top range"],
  ["GTTGGTGGAAACACTAAC (((.(((....))).)))", "center range"],
  ["GTCTACGAAAGTATTGAC ((((((....)))..)))", "bottom range"],
  ["GATTCAGAAATGAATC ((((((....))))))", "center range"],
  ["GACAACGAAAGTTGTC ((((((....))))))", "top range"],
  ["GCGGCAATCCGC ((((....))))", "top range"],
  ["GTAGGAGGAAACTTCTAC ((((.((....)).))))", "bottom range"],
  ["GACGCTGGAAACAGCATC ((.((((....)))).))", "center range"],
  ["GCGCGGCGAAAGCGACGC (((..((....))..)))", "top range"],
  ["GAGAGCGGAAACGCTCCC (.(((((....))))).)", "center range"],
  ["GAACCACCGAAAGGTTTC (((..(((....))))))", "bottom range"],
  ["GGTTTCGAAAGAAGACC ((((((....))).)))", "bottom range"],
  ["GGCATACGAAAGTAGGCC (((.(((....))).)))", "top range"],
  ["GTAGGTGGAAACATCTAC ((((.((....)).))))", "center range"],
  ["CGAACGAAAGTTCG (((((....)))))", "top range"],
  ["CGAGCTCGGAAACGATCG (((..(((....))))))", "bottom range"],
  ["GATCAAGCCTTGATC ((((((...))))))", "center range"],
  ["CGGTCCGGAAACGGTCCG (((.(((....))).)))", "top range"],
  ["GATGTAGGAAACTACACC (.(((((....))))).)", "bottom range"],
  ["GTGCTTCGAAAGAACAC (((.(((....))))))", "center range"],
  ["GATCACAGCCGTGATC ((((((....))))))", "top range"],
  ["GCGTGTGCACGC ((((....))))", "top range"],
  ["GTCTGGAAACAGAC (((((....)))))", "top range"],
  ["GCTTTGGGAAACCAAAAC (.(((((....))))).)", "bottom range"],
  ["GTTGCGGGAAACCGCAGC (.(((((....))))).)", "top range"],
  ["GCGGGTGGAAACGCTCGC (((.(.(....).).)))", "top range"],
  ["GTACTCGAAAGAGGTAC ((((((....))).)))", "center range"],
  ["GACATCGGAAACGATGTC (((((((....)))))))", "top range"],
  ["GATCGGTTTACCGATC ((((((....))))))", "top range"],
  ["GTGACGGGAAACCGTTGC (..((((....))))..)", "center range"],
  ["GCTAAGCGAAAGCGTCGC ((.(.((....)).).))", "center range"],
  ["GCGTAACACGC ((((...))))", "top range"],
  ["GATTGAGGAAACTCAGTC ((.((((....)))).))", "bottom range"],
  ["GCTGTAGGAAACTGCAGC ((((.((....)).))))", "top range"],
  ["CGCCCGGAAACGGCGGCG ((((((....)))..)))", "top range"],
  ["GCAATAGGAAACTATCGC ((.((((....)))).))", "bottom range"],
  ["GATCTATAGGTAGATC ((((((....))))))", "center range"],
  ["GCGAGGCGAAAGCTCCGC (((..((....))..)))", "top range"]
]}

* * *

# procedure_summary: folding enthalpy; higher = less favourable; fluorescence melt of hairpins on a sequencing array, two-state fit
# condition_details: sodium 0.088 M
Please enter 1 (yes) where folding enthalpy is greater than or equal to -30 kcal/mol, and 0 (no) where it is lower.

{"columns": ["sequence_text", "group_label"],
 "data": [
  ["GTTGTCGCGAAAGCGAAC (((..(((....))))))", "1 (yes)"],
  ["GCGTCAGGAAACTGACAC (.(((((....))))).)", "1 (yes)"],
  ["GATCAGTGCTCTGATC ((((((....))))))", "1 (yes)"],
  ["GGATTCGAAAGAACCTCC ((((((....)))..)))", "1 (yes)"],
  ["GCACGGGGAAACTCGTGC (((((.(....).)))))", "0 (no)"],
  ["GTCCGCACGAAAGTGGAC (((..(((....))))))", "1 (yes)"],
  ["GCCTCGGGAAACCAAGGC ((((.((....)).))))", "0 (no)"],
  ["GCTGATCCGAAAGGAAGC (((..(((....))))))", "1 (yes)"],
  ["GATCGACGAATCGATC ((((((....))))))", "0 (no)"],
  ["GATCTATATTAGATC ((((((...))))))", "1 (yes)"],
  ["GATCCGATGCGGATC ((((((...))))))", "0 (no)"],
  ["GACTCAGGAAACTGGGTC (((.(((....))).)))", "0 (no)"],
  ["GATGGCCGAAAGGCAATC (((.(((....))).)))", "1 (yes)"],
  ["GATCGCTCTCGCGATC ((((((....))))))", "0 (no)"],
  ["GATCTTTCCAAGATC ((((((...))))))", "0 (no)"],
  ["GAATTGGGAAACCAACTC ((.((((....)))).))", "1 (yes)"],
  ["GCAGTTGGAAACAACTGC (((((((....)))))))", "0 (no)"],
  ["GCCGCCGCGAAAGCGGGC (((..(((....))))))", "1 (yes)"],
  ["GGTTTCCGAAAGGATACC (((.(((....))).)))", "0 (no)"],
  ["GATCCCCGGCGGGATC ((((((....))))))", "0 (no)"],
  ["GCGCGTCGAAAGACCGC (((.(((....))))))", "0 (no)"],
  ["GTTGGTGGAAACATCAAC ((((.((....)).))))", "0 (no)"],
  ["GGTGATGGAAACGTCATC (.(((.(....).))).)", "1 (yes)"],
  ["GCTTCCGAAAGGATAGC ((((((....))).)))", "1 (yes)"],
  ["GCGTCACAACGC ((((....))))", "1 (yes)"]
]}

* * *

# procedure_summary: folding enthalpy; higher = less favourable; fluorescence melt of hairpins on a sequencing array, two-state fit
# condition_details: sodium 0.088 M
Please enter Fulfilled where folding enthalpy is greater than or equal to -30 kcal/mol, and Not fulfilled where it is lower.

{"columns": ["sequence_text", "group_label"],
 "data": [
  ["ATATCGAAAGATAT (((((....)))))", "Fulfilled"],
  ["GATCCATCTTTGGATC ((((((....))))))", "Not fulfilled"],
  ["GATCGTGCTGACGATC ((((((....))))))", "Not fulfilled"],
  ["GGAATTCGAAAGAACTCC (((.(((....))).)))", "Fulfilled"],
  ["GCGGGCATCCGC ((((....))))", "Fulfilled"],
  ["GGATTTACGAAAGTATCC (((..(((....))))))", "Fulfilled"]
]}

* * *

# procedure_summary: folding enthalpy; higher = less favourable; fluorescence melt of hairpins on a sequencing array, two-state fit
# condition_details: sodium 0.088 M

{"columns": ["sequence_text", "folding enthalpy"],
 "data": [
  ["GCAGGGCGAAAGCCAGGC ((..(((....)))..))", "-19.3 kcal/mol"],
  ["GTACCAGGAAACTAGTAC ((((.((....)).))))", "-15.3 kcal/mol"],
  ["GTCATTCGAAAGAAGGAC (((.(((....))).)))", "-42.5 kcal/mol"],
  ["GAACGGCGAAAGCCTTTC (((.(((....))).)))", "-18 kcal/mol"],
  ["GAGGAACGAAAGTTGCTC (((.(((....))).)))", "-47.7 kcal/mol"],
  ["GGTTGCACGAAAGTGACC (((..(((....))))))", "-11.2 kcal/mol"],
  ["GATCGATGCTTCGATC ((((((....))))))", "-41.9 kcal/mol"],
  ["GGGGGAGGAAACCCCCCC (((((.(....).)))))", "-20.1 kcal/mol"],
  ["CGGGCGGAAACGCTCCG ((((((....))).)))", "-26.4 kcal/mol"],
  ["GCGTCGCGAAAGCTTCGC (((..((....))..)))", "-19.7 kcal/mol"],
  ["TTCGGGAAACCGAA (((((....)))))", "-18.8 kcal/mol"],
  ["GGCCCAGGAAACCGAGCC (((.(.(....).).)))", "-15.7 kcal/mol"],
  ["GGGAGACGAAAGTCCCC (((.(((....))))))", "-35.5 kcal/mol"],
  ["GATCTCGATTGAGATC ((((((....))))))", "-39.4 kcal/mol"],
  ["GGAGACGGAAACGTCTTC (.(((((....))))).)", "-17.4 kcal/mol"],
  ["GAACCACCGAAAGGTTTC (((..(((....))))))", "-9.16 kcal/mol"],
  ["GCAAACGAAAGTTGTTGC ((((((....)))..)))", "-22.5 kcal/mol"],
  ["GTCCCGGGAAACCGGAAC ((.((((....)))).))", "-14.9 kcal/mol"],
  ["GCAGACGAAAGTCCATGC ((((((....)))..)))", "-16.5 kcal/mol"],
  ["GTGAGCCGAAAGGCCCAC (((.(((....))).)))", "-23.3 kcal/mol"],
  ["GCCCCAGGAAACTGAGGC (((.(((....))).)))", "-33.5 kcal/mol"],
  ["GATCAAGCCTTTGATC ((((((....))))))", "-40.7 kcal/mol"],
  ["GTGATAGCGAAAGCTCAC (((..(((....))))))", "-18.9 kcal/mol"],
  ["GCTATGCGAAAGCTTAGC ((((.((....)).))))", "-28.9 kcal/mol"],
  ["GATCACGAAAGTGTCATC ((((((....)))..)))", "-13.8 kcal/mol"]
]}
